These data points were gathered from patent US5849735A.

Test system: vasopressin V2
Assay: Vasopressin Antidiuretic (V2) Response in Conscious Rats with Free Access to Water Drinking Before But Not During the Experiment
Assay type: in vivo, rat (Sprague-Dawley)
Conditions: oral 10 mg/kg, N=2
Our labelling divides records by Osmolality into ranges: range A = under 300 MOsm/kg, range B = from 300 MOsm/kg up to 400 MOsm/kg, range C = 400 MOsm/kg and over

Would you mind sorting Cc1ccc(F)cc1C(=O)Nc1ccc(C(=O)N2Cc3ccccc3Nc3ncccc32)cn1 into the appropriate category?
range C

Also, O=C(Nc1ccc(C(=O)N2Cc3cccnc3Nc3ccccc32)cn1)c1ccccc1-c1ccccc1 please.
range C

Another compound to look at: O=C(Nc1ccc(C(=O)N2Cc3ccccc3Cc3ccccc32)c(Cl)c1)c1ccccc1-c1ccccc1
range B

Same again, this time with O=C(Nc1ccc(C(=O)N2Cc3cccnc3Oc3ccccc32)cn1)c1ccccc1-c1ccccc1
range C

Same question for O=C(Nc1ccc(C(=O)N2Cc3ccccc3Cc3ccccc32)cc1)c1ccccc1-c1ccccc1 please.
range B

Again, but for Cc1ccc(F)cc1C(=O)Nc1ccc(C(=O)N2Cc3cscc3Nc3ccccc32)cn1
range A

Same thing, different compound: O=C(Nc1ccc(C(=O)N2CCc3cn[nH]c3-c3ccccc32)c(Cl)c1)c1ccccc1-c1ccccc1
range A

Similarly, O=C(Nc1ccc(C(=O)N2Cc3cccnc3Nc3ccccc32)c(Cl)c1)c1ccccc1-c1ccccc1 ?
range B

Also need O=C(Nc1ccc(C(=O)N2CCc3cn[nH]c3-c3ccccc32)cn1)c1ccccc1-c1ccccc1 , thanks.
range B

Record: Cl.O=C(Nc1ccc(C(=O)N2Cc3cccnc3Nc3ccccc32)cc1)c1ccccc1-c1ccccc1
range A

Ok, now O=C(Nc1ccc(C(=O)N2Cc3ccccc3Nc3ccccc32)c(Cl)c1)c1ccccc1-c1ccccc1
range A

Could you do the same for O=C(Nc1ccc(C(=O)N2CCc3cn[nH]c3-c3ccccc32)cc1)c1ccccc1-c1ccccc1 , please?
range A

# iterate: O=C(Nc1ccc(C(=O)N2Cc3cccnc3Nc3ccccc32)cc1)c1ccccc1-c1ccccc1
range A

Same again, this time with O=C(c1ccc(-c2cccs2)cc1)N1Cc2ccccc2Nc2ccccc21
range C

Please answer likewise for O=C(Nc1ccc(C(=O)N2Cc3ccccc3Nc3ccccc32)cn1)c1ccccc1-c1ccccc1
range B
